# measured.on: human Edg-1 receptor (Homo sapiens, UniProt P21453)
# Construct: expressed in transfected cells; host or cells: Flp-In-CHO cells, stably transfected; membrane preparation
# Sequence (P21453 whole entry): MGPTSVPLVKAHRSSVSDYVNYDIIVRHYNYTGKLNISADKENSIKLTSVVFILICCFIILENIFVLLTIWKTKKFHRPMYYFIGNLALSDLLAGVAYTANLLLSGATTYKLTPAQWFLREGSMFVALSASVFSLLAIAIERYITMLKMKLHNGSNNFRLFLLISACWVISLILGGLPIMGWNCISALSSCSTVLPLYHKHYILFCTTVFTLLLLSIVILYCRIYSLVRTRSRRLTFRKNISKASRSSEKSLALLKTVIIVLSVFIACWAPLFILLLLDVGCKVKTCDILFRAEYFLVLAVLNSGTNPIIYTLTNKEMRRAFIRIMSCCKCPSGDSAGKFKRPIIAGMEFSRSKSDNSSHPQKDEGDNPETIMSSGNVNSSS
# assay.info: GTP-γ-S assay using human Edg-1 receptors (scintillation proximity assay, CHO Flp-In cell membrane preparation)
# Format: biochemical
# stated.conditions: test compound at 10 μM; 10 μM S1P regarded as 100% activation; background-corrected; triplicate; read-out: % Activation (Edg-1 receptor activation in percent of the activation by 10 μM S1P)
Please respond with reported activation at 10 µM for every item in the list.
Answer with the value and then the unit.

Measured activation at 10 µM of COc1ccc(-c2nc3cnc(Oc4ccccc4F)nc3o2)cc1C(F)(F)F [Example 6] : 87%

Measured activation at 10 µM of COc1ccc(-c2nc3cnc(Oc4ccccc4F)nc3o2)cc1C [Example 5] : 42%

Measured activation at 10 µM of Cc1cc(-c2nc3cnc(Oc4ccccc4F)nc3o2)cc(C)c1O [Example 2] : 115%

Measured activation at 10 µM of COc1c(C)cc(-c2nc3cnc(Oc4ccccc4F)nc3o2)cc1C [Example 1] : 102%
